- Assay notes: Water dispersion study: pharmacokinetics of 8×120 mg tablets versus tablets dispersed in water
- Format: in vivo, healthy subjects
- Recorded conditions: human, plasma, oral, 960 mg, Geometric mean sotorasib AUCinf, administered as water dispersion (Treatment B)
Assay metric: AUC(0-inf) (ng·h/mL)

INSERT INTO results (compound, test_result) VALUES
  ('C=CC(=O)N1CCN(c2nc(=O)n(-c3c(C)ccnc3C(C)C)c3nc(-c4c(O)cccc4F)c(F)cc23)[C@@H](C)C1 (atropisomer, axis not shown; (M)) [Sotorasib]', 26400);
